Molecular target: Histamine H2 receptor (Cavia porcellus)
Sequence (P47747 whole entry): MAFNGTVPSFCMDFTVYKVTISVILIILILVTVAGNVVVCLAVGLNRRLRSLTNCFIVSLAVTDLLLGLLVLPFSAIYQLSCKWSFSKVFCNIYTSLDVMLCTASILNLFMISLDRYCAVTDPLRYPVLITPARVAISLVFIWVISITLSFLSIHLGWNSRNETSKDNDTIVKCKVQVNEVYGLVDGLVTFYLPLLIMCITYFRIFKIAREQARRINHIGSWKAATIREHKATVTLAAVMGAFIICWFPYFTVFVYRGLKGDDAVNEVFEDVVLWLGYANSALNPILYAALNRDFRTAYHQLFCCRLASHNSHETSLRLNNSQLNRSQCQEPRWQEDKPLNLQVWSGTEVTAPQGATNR
Experiment: Agonist activity at histamine H2 receptor in spontaneously beating guinea pig atrium assessed as increase in heart rate as relative to histamine
Format: functional, tissue-based
Conditions: Cardiac atrium
Note to self: use satisfied only for Emax readings below 80%; a reading exactly at 80% still gets not satisfied.

[[record]]
compound = "C[C@@H](CC(=O)NC(=N)NCCCc1c[nH]cn1)c1ccccc1"
group = "not satisfied"

[[record]]
compound = "Cc1nc(N)sc1CCCNC(=N)NC(=O)C[C@@H](C)c1ccccc1"
group = "satisfied"

[[record]]
compound = "Cc1nc(N)sc1CCCNC(=N)NC(=O)CC(C)c1ccccc1 (racemic)"
group = "not satisfied"

[[record]]
compound = "NCCc1c[nH]cn1"
group = "not satisfied"

[[record]]
compound = "Cc1nc(N)sc1CCCNC(=N)NC(=O)CC(C)C1CCCCC1 (racemic)"
group = "satisfied"

[[record]]
compound = "C[C@@H](CC(=O)NC(=N)NCCCc1c[nH]cn1)C1CCCCC1"
group = "not satisfied"

[[record]]
compound = "C[C@H](CC(=O)NC(=N)NCCCc1c[nH]cn1)c1ccccc1"
group = "not satisfied"

[[record]]
compound = "Cc1nc(N)sc1CCCNC(=N)NC(=O)C[C@H](C)c1ccccc1"
group = "not satisfied"


----------
# Ratio EC50 values compiled below
Target: Histamine H2 receptor (Homo sapiens)
Assay: Selectivity ratio of EC50 for human histamine H2 to EC50 for guinea pig histamine H2 receptor
PROPERTY_NAME: Ratio EC50

[[record]]
compound = "Cc1nc(N)sc1CCCNC(=N)NC(=O)C[C@@H](C)C1CCCCC1"
quantitative_readout = 1.53

[[record]]
compound = "C[C@@H](CC(=O)NC(=N)NCCCc1c[nH]cn1)c1ccccc1"
quantitative_readout = 3.32

[[record]]
compound = "Cc1nc(N)sc1CCCNC(=N)NC(=O)C[C@@H](C)c1ccccc1"
quantitative_readout = 3.14

[[record]]
compound = "C[C@H](CC(=O)NC(=N)NCCCc1c[nH]cn1)C1CCCCC1"
quantitative_readout = 0.98

[[record]]
compound = "Cc1nc(N)sc1CCCNC(=N)NC(=O)CC(C)C1CCCCC1 (racemic)"
quantitative_readout = 1.24

[[record]]
compound = "C[C@@H](CC(=O)NC(=N)NCCCc1c[nH]cn1)C1CCCCC1"
quantitative_readout = 0.84

[[record]]
compound = "Cc1nc(N)sc1CCCNC(=N)NC(=O)C[C@H](C)c1ccccc1"
quantitative_readout = 3.6

[[record]]
compound = "Cc1nc(N)sc1CCCNC(=N)NC(=O)CC(C)c1ccccc1 (racemic)"
quantitative_readout = 2.22

[[record]]
compound = "Cc1nc(N)sc1CCCNC(=N)NC(=O)C[C@H](C)C1CCCCC1"
quantitative_readout = 2.05

[[record]]
compound = "C[C@H](CC(=O)NC(=N)NCCCc1c[nH]cn1)c1ccccc1"
quantitative_readout = 1.58


----------
Target: Histamine H1 receptor (Homo sapiens)
Sequence (P35367 whole entry): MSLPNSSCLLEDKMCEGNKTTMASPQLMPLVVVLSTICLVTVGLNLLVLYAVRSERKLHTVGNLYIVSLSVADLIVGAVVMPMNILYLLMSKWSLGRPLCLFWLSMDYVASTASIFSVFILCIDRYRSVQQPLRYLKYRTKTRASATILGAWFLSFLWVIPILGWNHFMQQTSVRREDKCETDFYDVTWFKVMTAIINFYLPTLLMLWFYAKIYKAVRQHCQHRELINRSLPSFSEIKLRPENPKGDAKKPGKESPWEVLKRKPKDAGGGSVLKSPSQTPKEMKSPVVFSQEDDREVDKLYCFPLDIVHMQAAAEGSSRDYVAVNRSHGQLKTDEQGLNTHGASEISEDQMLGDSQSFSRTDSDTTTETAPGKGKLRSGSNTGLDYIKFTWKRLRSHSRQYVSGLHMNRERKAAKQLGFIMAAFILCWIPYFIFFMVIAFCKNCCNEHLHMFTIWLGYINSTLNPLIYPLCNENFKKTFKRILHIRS
Assay: Activity at human recombinant histamine H1 receptor expressed in Sf9 cells coexpressing RGS4 by steady-state GTPase activity assay relative to histamine
// classify: if (Emax < 50%) fulfilled else not fulfilled

[[record]]
molecular_string = "C[C@H](CC(=O)NC(=N)NCCCc1c[nH]cn1)C1CCCCC1"
group = "fulfilled"

[[record]]
molecular_string = "C[C@@H](CC(=O)NC(=N)NCCCc1c[nH]cn1)c1ccccc1"
group = "not fulfilled"

[[record]]
molecular_string = "C[C@H](CC(=O)NC(=N)NCCCc1c[nH]cn1)c1ccccc1"
group = "fulfilled"

[[record]]
molecular_string = "NCCc1c[nH]cn1"
group = "not fulfilled"


----------
Target: UniProt:P47747
Assay: Agonist activity at GsalphaS-fused guinea pig histamine H2 receptor expressed in Sf9 cells by steady-state GTPase assay
PROPERTY_NAME: EC50

[[record]]
molecule = "C[C@@H](CC(=O)NC(N)=NCCCc1cnc[nH]1)C1CCCCC1"
assayed_target = "UniProt:P47747"
result = "7.76 nM"

[[record]]
molecule = "Cc1nc(N)sc1CCCNC(=N)NC(=O)CC(C)C1CCCCC1 (racemic)"
assayed_target = "UniProt:P47747"
result = "7.59 nM"

[[record]]
molecule = "C[C@H](CC(=O)NC(N)=NCCCc1cnc[nH]1)C1CCCCC1"
assayed_target = "UniProt:P47747"
result = "19.1 nM"

[[record]]
molecule = "C[C@@H](CC(=O)NC(N)=NCCCc1cnc[nH]1)c1ccccc1"
assayed_target = "UniProt:P47747"
result = "24 nM"


----------
The molecules listed here are annotated with their Emax.
Biological target: Histamine H2 receptor (Cavia porcellus)
Test: Agonist activity at histamine H2 receptor in spontaneously beating guinea pig atrium assessed as increase in heart rate as relative to histamine
Format: functional, tissue-based
Conditions: Cardiac atrium
PROPERTY_NAME: Emax

[[record]]
molecular_string = "Cc1nc(N)sc1CCCNC(=N)NC(=O)C[C@H](C)C1CCCCC1"
assayed_target = "Histamine H2 receptor (Cavia porcellus)"
result = "78%"

[[record]]
molecular_string = "C[C@H](CC(=O)NC(=N)NCCCc1c[nH]cn1)C1CCCCC1"
assayed_target = "Histamine H2 receptor (Cavia porcellus)"
result = "82%"

[[record]]
molecular_string = "Cc1nc(N)sc1CCCNC(=N)NC(=O)C[C@@H](C)C1CCCCC1"
assayed_target = "Histamine H2 receptor (Cavia porcellus)"
result = "80%"


Entry source: ChEMBL document CHEMBL1157755
